All figures here come from patent US9670227B2.

Recorded IC50 values for a group of compounds are listed next.
Target: Mcl-1 protein (UniProtKB primary accession number: Q07820) (Homo sapiens, UniProt Q07820)
Sequence (Q07820 whole entry): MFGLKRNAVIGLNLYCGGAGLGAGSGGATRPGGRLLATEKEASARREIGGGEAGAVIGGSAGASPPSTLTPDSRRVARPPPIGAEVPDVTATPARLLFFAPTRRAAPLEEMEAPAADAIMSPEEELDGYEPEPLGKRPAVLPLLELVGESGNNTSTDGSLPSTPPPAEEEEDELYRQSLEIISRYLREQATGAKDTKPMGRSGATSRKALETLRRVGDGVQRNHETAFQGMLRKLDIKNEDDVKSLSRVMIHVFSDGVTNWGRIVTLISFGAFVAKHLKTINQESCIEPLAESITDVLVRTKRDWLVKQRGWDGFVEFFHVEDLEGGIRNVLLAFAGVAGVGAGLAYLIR
Assay: Inhibition of Mcl-1 by fluorescence polarisation, Method 1
Assay type: binding
Conditions: fluorescence polarisation test; Method 2 values are underlined in the patent (underlining not visible here); read-out: IC50 (M) Mcl-1 FP

Guide cases for IC50, answers given:
{"compound": "COc1cccc(-c2nccc(COc3ccccc3CC(Oc3ncnc4sc(-c5ccc(F)cc5)c(-c5ccc(OCCN6CCN(C)CC6)c(Cl)c5C)c34)C(=O)O)n2)c1 (stereo not drawn)", "target-or-system": "Mcl-1 protein (UniProtKB primary accession number: Q07820) (Homo sapiens, UniProt Q07820)", "IC50": "5.6e-09 M"}
{"compound": "Cc1c(-c2c(-c3ccco3)sc3ncnc(OC(Cc4ccccc4OCc4cc(Cl)ccn4)C(=O)O)c23)ccc(OCCN2CCN(C)CC2)c1Cl (stereo not drawn)", "target-or-system": "Mcl-1 protein (UniProtKB primary accession number: Q07820) (Homo sapiens, UniProt Q07820)", "IC50": "7.4e-09 M"}
{"compound": "COc1ccccc1CC(Oc1ncnc2sc(-c3ccco3)c(-c3ccc(OC(=O)CN4CCN(C)CC4)c(Cl)c3C)c12)C(=O)O (stereo not drawn)", "target-or-system": "Mcl-1 protein (UniProtKB primary accession number: Q07820) (Homo sapiens, UniProt Q07820)", "IC50": "1.3e-08 M"}

Q: Query (compound): Cc1c(-c2c(-c3ccc(F)cc3)sc3ncnc(OC(Cc4ccccc4OCc4ccnc(N5CCOCC5)c4)C(=O)O)c23)ccc(OCCN2CCN(C)CC2)c1Cl (stereo not drawn) ; field requested: IC50
Ans: 6.4e-09 M

Q: What do you get for Cc1c(-c2c(-c3ccc(F)cc3)sc3ncnc(OC(Cc4ccccc4OCc4ccnc(Cl)c4)C(=O)O)c23)ccc(OCCN2CCN(C)CC2)c1Cl (stereo not drawn) ?
Ans: 4.4e-09 M

Q: What do you get for Cc1c(-c2c(-c3ccc(F)cc3)sc3ncnc(OC(Cc4ccccc4OCc4ccnc(-c5ccccc5)n4)C(=O)O)c23)ccc(OCCN2CCN(C)CC2)c1Cl (stereo not drawn) ?
Ans: 3.3e-09 M
